Target Of Assay: T1, apical domain of cynomolgus CD71 (cynomolgus, UniProt A0A2K5X958 189-383)
T1 construct: domain: apical domain; also called Cyno apical domain
T1 sequence (A0A2K5X958 entry or part of it): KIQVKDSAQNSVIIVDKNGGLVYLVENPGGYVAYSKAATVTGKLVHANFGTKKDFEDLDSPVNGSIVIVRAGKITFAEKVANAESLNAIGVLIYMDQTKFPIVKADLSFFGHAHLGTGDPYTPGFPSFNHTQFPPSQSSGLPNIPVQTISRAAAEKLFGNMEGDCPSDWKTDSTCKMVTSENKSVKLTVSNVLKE
Test Protocol: primary ELISA, signal ratio to HSA
Cyno apical domain:HSA listing for selected binders.
Reply with the value as a number alone.

Check out these entries, answers already filled in.
Binder	Property Measured	Recorded Result
CD71-binding FN3 domain of SEQ ID NO: 174 (designed binder) MSLPAPKNLVVSRVTEDSARLSWTAPNAAFDSFEIGYFENLYLGEAIVLTVPGSERSYDLTGLKPGTEYWVQIGGVKGGNWSAPLSAIFTT	Cyno apical domain:HSA	165
CD71-binding FN3 domain of SEQ ID NO: 141 (designed binder) MSLPAPKNLVVSRVTEDSARLSWTAPDAAFDSFEIGYFENLYLGEAIVLTVPGSERSYDLTGLKPGTEYWVQIGGVKGGNWSAPLSAYFTT	Cyno apical domain:HSA	245
CD71-binding FN3 domain of SEQ ID NO: 172 (designed binder) MSRPAPKNLVVSRVTEDSARLSWTAPGAAFDSFEIAYFERTWFGEAIVLTVPSSERSYDLTGLKPGTEYWVQIGGVKGGDWSKPLSAIFTT	Cyno apical domain:HSA	37

Look at this binder and give its reported Cyno apical domain:HSA. CD71-binding FN3 domain of SEQ ID NO: 137 (designed binder) MSLPAPKNLVVSRVTEDSARLSWTAPDAAFDSFFIGYLEPQPPGEAITLYVPGSERSYDLTGLKPGTEYNVTIQGVKGGFPSDPLVAHFTT
218
